Each item that follows carries a reported pEC50.
Test system: Human immunodeficiency virus 1
Experiment: Antiviral activity against HIV-1 infected in human CEM-SS cells assessed as reduction in viral multiplication by measuring decrease in reverse transcriptase activity incubated for 5 days
Type: functional, organism-based
Details: Human immunodeficiency virus 1, CEM-SS, 120 h
pEC50: −log10 of the molar value.
Endpoint Name: pEC50

• Nc1ccn([C@H]2CC[C@@H](CO)O2)c(=O)n1 = 7.17
• Nc1ncnc2c1ncn2[C@H]1CC[C@@H](CO)O1 = 5.70
• Cc1cn([C@H]2C[C@H](N=[N+]=[N-])[C@@H](CO)O2)c(=O)[nH]c1=O = 7.62

###

Test: Selectivity index, ratio of CC50 for human CEM-SS cells to EC50 for antiviral activity against HIV-1 infected in human CEM-SS cells in presence of AZT
Assay type: toxicity, cell-based
Conditions: read-out: Ratio CC50/EC50
Endpoint Name: selectivity ratio

- Nc1ccn([C@H]2CC[C@@H](CO)O2)c(=O)n1: 2880

###

Tested on: Human immunodeficiency virus 1
Assay: Antiviral activity against HIV-1 infected in human CEM-TK(-) cells assessed as reduction in viral multiplication by measuring decrease in reverse transcriptase activity incubated for 6 days in presence of AZT
Type: functional, organism-based
Conditions: Human immunodeficiency virus 1, CEM-TK(-), 144 h
Endpoint Name: EC50 (nM)

* Nc1ccn([C@H]2CC[C@@H](CO)O2)c(=O)n1 | 9

###

Assay: Cytotoxicity against human MT4 cells assessed as reduction in cell viability incubated for 5 days in presence of ddA by MTT assay
Type: cell-based
Details: time 5 day
Endpoint Name: CC50 at 120 h

* Nc1ccn([C@H]2CC[C@@H](CO)O2)c(=O)n1 | > 100 µM

###

Assay: Cytotoxicity against human CEM-SS cells assessed as reduction in cell viability incubated for 5 days in presence of AZT by MTT assay
Type: cell-based
Conditions: time 5 day
Endpoint Name: CC50 at 120 h

• Nc1ccn([C@H]2CC[C@@H](CO)O2)c(=O)n1 [ZALCITABINE] = 46 µM

###

Reported values of selectivity ratio for individual entries
Experiment: Selectivity index, ratio of CC50 for human CEM-SS cells to EC50 for antiviral activity against HIV-1 infected in human CEM-SS cells
Assay type: toxicity, cell-based
Conditions: read-out: Ratio CC50/EC50
Endpoint Name: selectivity ratio

- Cc1cn([C@H]2C[C@H](N=[N+]=[N-])[C@@H](CO)O2)c(=O)[nH]c1=O: > 40000
- Nc1ccn([C@H]2CC[C@@H](CO)O2)c(=O)n1: 239
- Nc1ncnc2c1ncn2[C@H]1CC[C@@H](CO)O1: > 55

###

Experiment: Cytotoxicity against human MT4 cells assessed as reduction in cell viability incubated for 5 days by MTT assay
Assay type: cell-based
Conditions: time 5 day
Endpoint Name: CC50 at 120 h (µM)

* Cc1cn([C@H]2C[C@H](N=[N+]=[N-])[C@@H](CO)O2)c(=O)[nH]c1=O | 140
* Nc1ccn([C@H]2CC[C@@H](CO)O2)c(=O)n1 | 180

###

List of CC50 at 120 h values.
Assay: Cytotoxicity against human CEM-SS cells assessed as reduction in cell viability incubated for 5 days by MTT assay
Type: cell-based
Details: time 5 day
Endpoint Name: CC50 at 120 h

• Cc1cn([C@H]2C[C@H](N=[N+]=[N-])[C@@H](CO)O2)c(=O)[nH]c1=O = > 1000 µM
• Nc1ccn([C@H]2CC[C@@H](CO)O2)c(=O)n1 = 16 µM
• Nc1ncnc2c1ncn2[C@H]1CC[C@@H](CO)O1 = > 110 µM
